Where these numbers come from: PubChem BioAssay (NCATS)

assay: NS1 protein of Zika virus - qHTS assay to identify small molecule inhibitors in human HEK 293 cells (AID 1347053); conditions: HEK293 ZIKV MR766 infection, NS1 TR-FRET, 24 h; series mostly up to 46.1 µM; note: nearly all actives have a fitted effect of over 55% in size
Results filed as inconclusive are left out. Calls of active or inactive are those of the source. Calls come from the whole dose curve; as a rule, active = well fitted inhibition curve with a large enough effect; inconclusive = small, poorly fitted or top-dose-only effect; inactive = no such curve, though single readings can be large or run the other way.
Classes used: active, inactive

[[record]]
compound = "N[C@@H](Cc1c[nH]c2ccc(O)cc12)C(=O)O"
assigned_class = "inactive"

[[record]]
compound = "COc1cc2nc(N3CCN(C(=O)c4ccco4)CC3)nc(N)c2cc1OC"
assigned_class = "active"

[[record]]
compound = "CC[N+](CC)(CC)CCOc1cccc(OCC[N+](CC)(CC)CC)c1OCC[N+](CC)(CC)CC"
assigned_class = "inactive"

[[record]]
compound = "Cn1c(=O)c2[nH]cnc2n(C)c1=O"
assigned_class = "inactive"

[[record]]
compound = "CC(COc1ccccc1)N(CCCl)Cc1ccccc1 (stereo unspecified)"
assigned_class = "inactive"

[[record]]
compound = "Clc1ccc2c(c1)C(N1CCNCC1)=Nc1ccccc1O2"
assigned_class = "inactive"

[[record]]
compound = "COc1cc2c(c(OC)c1OC)-c1ccc(OC)c(=O)cc1[C@@H](NC(C)=O)CC2"
assigned_class = "inactive"

[[record]]
compound = "Fc1ccc([C@@H]2CCNC[C@H]2COc2ccc3c(c2)OCO3)cc1"
assigned_class = "inactive"

[[record]]
compound = "O=c1c(-c2ccc(O)cc2)coc2cc(O)cc(O)c12"
assigned_class = "inactive"

[[record]]
compound = "CC(=O)OCC(CCn1cnc2cnc(N)nc21)COC(C)=O"
assigned_class = "inactive"

[[record]]
compound = "Cc1cc(C(C)(C)C)c(O)c(C)c1CC1=NCCN1"
assigned_class = "inactive"

